Assayed Target: Neuronal acetylcholine receptor subunit alpha-7 (Homo sapiens, UniProt P36544)
Sequence (P36544 whole entry): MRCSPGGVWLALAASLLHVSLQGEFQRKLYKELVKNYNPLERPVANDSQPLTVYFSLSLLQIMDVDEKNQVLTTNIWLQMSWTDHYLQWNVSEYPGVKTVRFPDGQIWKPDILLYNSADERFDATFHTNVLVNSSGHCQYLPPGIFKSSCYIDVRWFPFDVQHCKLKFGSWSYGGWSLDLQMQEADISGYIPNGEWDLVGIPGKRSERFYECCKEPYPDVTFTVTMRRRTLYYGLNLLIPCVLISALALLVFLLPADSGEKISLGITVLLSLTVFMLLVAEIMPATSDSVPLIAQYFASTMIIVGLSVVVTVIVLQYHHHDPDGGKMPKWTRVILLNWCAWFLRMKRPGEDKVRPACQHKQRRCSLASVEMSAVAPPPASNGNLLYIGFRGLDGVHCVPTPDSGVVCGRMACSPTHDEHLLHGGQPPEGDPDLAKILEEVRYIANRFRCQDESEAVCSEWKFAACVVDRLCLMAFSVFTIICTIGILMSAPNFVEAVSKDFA
Assay Info: Partial agonist activity at human alpha7 nAChR expressed in Xenopus laevis oocytes assessed as residual potentiation of Ach response at 10 uM at -60 mV holding potential by measuring net charge preincubated with compound followed by Ach addition after PNU-120596 addition by two electrode voltage-clamp assay
Type: cell-based
Condition Summary: Oocyte, filed as partial agonist
Activity calls are given as the source filed them. The calls are words filed in the database; no cut-off is given here.
Measured Quantity: Activity

O=C(c1ccc(-c2cccc(Br)c2)o1)N1CCN2CCC1CC2 :: Active
O=C(c1ccc(-c2cccc(I)c2)o1)N1CCN2CCC1CC2 :: Active
O=C(c1ccc(-c2ccccc2)o1)N1CCN2CCC1CC2 :: 18.3
O=C(c1ccc(-c2cccc(Cl)c2)o1)N1CCN2CCC1CC2 :: Active
C[N+]12CCC(CC1)N(C(=O)c1ccc(-c3cccc(C(F)(F)F)c3)o1)CC2 :: 1.39

Form: item O=C(c1ccc(-c2ccoc2)o1)N1CCN2CCC1CC2 ; test system Neuronal acetylcholine receptor subunit alpha-7 (Homo sapiens, UniProt P36544); Activity: Active

The recorded Activity with Neuronal acetylcholine receptor subunit alpha-7 (Homo sapiens, UniProt P36544) for Cc1cccc(-c2ccc(C(=O)N3CCN4CCC3CC4)o2)c1 was 30.7

The reported Activity value, Neuronal acetylcholine receptor subunit alpha-7 (Homo sapiens, UniProt P36544), for O=C(c1ccc(-c2cccc([N+](=O)[O-])c2)o1)N1CCN2CCC1CC2 reads 4.78

Measured Activity (Neuronal acetylcholine receptor subunit alpha-7 (Homo sapiens, UniProt P36544)), entry O=C(c1ccc(-c2cccc(F)c2)o1)N1CCN2CCC1CC2 : Active
